assaySystem: UniProt:O70536
Sequence (O70536 whole entry): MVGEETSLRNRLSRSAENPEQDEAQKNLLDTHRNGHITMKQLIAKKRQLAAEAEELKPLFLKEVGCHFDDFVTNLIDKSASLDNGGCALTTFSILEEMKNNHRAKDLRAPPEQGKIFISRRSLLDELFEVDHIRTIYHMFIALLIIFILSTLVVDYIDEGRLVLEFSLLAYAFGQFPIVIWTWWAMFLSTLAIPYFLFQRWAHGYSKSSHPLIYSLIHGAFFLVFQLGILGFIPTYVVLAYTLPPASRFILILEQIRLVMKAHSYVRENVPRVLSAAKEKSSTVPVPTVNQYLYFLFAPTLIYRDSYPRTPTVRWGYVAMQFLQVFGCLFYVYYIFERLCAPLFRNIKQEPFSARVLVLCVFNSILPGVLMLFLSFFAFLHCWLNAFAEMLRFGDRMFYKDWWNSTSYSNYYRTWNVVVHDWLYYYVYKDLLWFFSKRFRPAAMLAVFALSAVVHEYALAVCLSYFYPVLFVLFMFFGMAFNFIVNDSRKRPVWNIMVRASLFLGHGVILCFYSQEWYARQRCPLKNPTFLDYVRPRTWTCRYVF
assayComment: Compound at 5 uM concentration was tested in vitro for inhibition of Acyl-CoA: Cholesterol Acyltransferase (ACAT) in liver microsomes of cholesterol fed rats
Set-up: species or system Microsome
parameter: IC50 (µM)

[[record]]
itemsmiles = "CCCCCCCCCCCCCCS(=O)(=O)N(Cc1ccccc1)C(=O)Nc1c(C(C)C)cccc1C(C)C"
unitsymbol = "µM"
measurement = 38


* * *

assaySystem: O-acyltransferase (Oryctolagus cuniculus, UniProt G1SFD9)
Sequence (G1SFD9 1-524): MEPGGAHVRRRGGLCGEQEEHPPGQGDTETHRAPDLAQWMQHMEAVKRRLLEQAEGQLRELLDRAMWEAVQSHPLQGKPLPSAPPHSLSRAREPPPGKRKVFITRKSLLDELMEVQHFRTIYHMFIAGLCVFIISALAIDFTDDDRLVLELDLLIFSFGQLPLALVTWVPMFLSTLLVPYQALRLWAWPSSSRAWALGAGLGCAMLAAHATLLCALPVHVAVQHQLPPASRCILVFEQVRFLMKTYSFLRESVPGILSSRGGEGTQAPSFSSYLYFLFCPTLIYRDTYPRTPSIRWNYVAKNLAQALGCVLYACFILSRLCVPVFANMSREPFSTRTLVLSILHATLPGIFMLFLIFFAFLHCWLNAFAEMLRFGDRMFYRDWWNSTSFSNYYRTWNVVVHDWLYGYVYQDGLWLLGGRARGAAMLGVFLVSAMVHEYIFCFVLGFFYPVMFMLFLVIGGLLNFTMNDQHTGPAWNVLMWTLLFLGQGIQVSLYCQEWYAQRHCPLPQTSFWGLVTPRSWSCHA
assayComment: Inhibition of Acyl-CoA: Cholesterol Acyltransferase (ACAT) in intestinal microsomes of cholesterol fed rabbits
Parameters: species or system Intestine
pIC50: −log10 of the molar value.
Rule: met for pIC50 not less than 6, not met for anything less.

[[record]]
itemsmiles = "CCCCCCCCCCS(=O)(=O)NC(=O)Nc1c(C(C)C)cccc1C(C)C"
assignedclass = "not met"

[[record]]
itemsmiles = "CCCCCCCCCCCCS(=O)(=O)NC(=O)Nc1c(C(C)C)cccc1C(C)C"
assignedclass = "not met"

[[record]]
itemsmiles = "CCCCCCCCCCCCS(=O)(=O)N(C)C(=O)Nc1c(C(C)C)cccc1C(C)C"
assignedclass = "met"

[[record]]
itemsmiles = "CCCCCCCCCCCCCCS(=O)(=O)N(Cc1ccccc1)C(=O)Nc1c(C(C)C)cccc1C(C)C"
assignedclass = "met"

